assay: Selectivity index, ratio of IC50 for cytotoxicity against chinese hamster V79 cells to IC50 for cytotoxicity against human SW620 cells; assay type: toxicity, cell-based; settings: V79 cells versus SW620 cells, read-out: Ratio IC50

# structure smiles, selectivity ratio
measured = [
    ("CC[C@@H](C(=O)[C@@H](C)[C@@H](O)[C@H](C)[C@@H]1O[C@@H]([C@@H](CC)C(=O)OCCCC[P+](c2ccc(C)cc2)(c2ccc(C)cc2)c2ccc(C)cc2)CC[C@@H]1C)[C@H]1O[C@]2(C=C[C@@H](O)[C@]3(CC[C@@](C)([C@H]4CC[C@](O)(CC)[C@H](C)O4)O3)O2)[C@H](C)C[C@@H]1C.[Br-]", 7.5),
    ("CC[C@@H](C(=O)[C@@H](C)[C@@H](O)[C@H](C)[C@@H]1O[C@@H]([C@@H](CC)C(=O)OCCCC[P+](c2ccc(OC)cc2)(c2ccc(OC)cc2)c2ccc(OC)cc2)CC[C@@H]1C)[C@H]1O[C@]2(C=C[C@@H](O)[C@]3(CC[C@@](C)([C@H]4CC[C@](O)(CC)[C@H](C)O4)O3)O2)[C@H](C)C[C@@H]1C.[Br-]", 0.5),
    ("CC[C@@H](C(=O)[C@@H](C)[C@@H](O)[C@H](C)[C@@H]1O[C@@H]([C@@H](CC)C(=O)OCCCCCC[P+](c2ccc(C)cc2)(c2ccc(C)cc2)c2ccc(C)cc2)CC[C@@H]1C)[C@H]1O[C@]2(C=C[C@@H](O)[C@]3(CC[C@@](C)([C@H]4CC[C@](O)(CC)[C@H](C)O4)O3)O2)[C@H](C)C[C@@H]1C.[Br-]", 0.9),
]

Entry source: ChEMBL document CHEMBL6120978
